# growth values compiled below
- System: SNB-75 CNS
- Assay Summary: NCI-60 one-dose screen, 48 h (100 = growth as untreated, 0 = no growth, -100 = all killed)
- Setup Conditions: 10 µM unless noted
- Description: Growth inhibition of the SNB-75 human tumor cell line is measured as a screen for anti-cancer activity. Cells are grown in 96 well plates and exposed to the test compound for 48 hours. Compounds are tested at a single concentration, which is 10^-5 M for most compounds. The reported endpoint is percent growth (GI% or GIPRCNT), where numbers from 0 - 100% represent growth inhibition, and numbers from -100% - 0 represent cell death. For example, a value of 40 represents 60% growth inhibition. […]
This is part of a sample that, as a whole, favours compounds with a hit. Of some 83,000 tested, about 20% had one in any assay. Active and inactive are the calls of the source. Rule for the calls: active = growth percent below 10; inactive = the rest.

# annotated cases, reported growth shown
>  <Compound>
COc1cccc(CCN2C(=O)CCC3=C2CCC3=O)c1

>  <Target Entity>
SNB-75 CNS

>  <growth>
84.4% (inactive)

$$$$
>  <Compound>
CCOC(=O)c1sc(NC(=O)COc2cccc(/C=C3\CCc4cc(OC)ccc4C3=O)c2)nc1C

>  <Target Entity>
SNB-75 CNS

>  <growth>
99.3% (inactive)

$$$$
>  <Compound>
O=C1OC(Oc2ccccc2)(c2ccccc2)c2ccccc21 (stereo unspecified)

>  <Target Entity>
SNB-75 CNS

>  <growth>
97.2% (inactive)

$$$$
>  <Compound>
COc1ccc2nc(-c3ccc(Cl)cc3)cc(-c3nnc(SCC(=O)Nc4ccc(C(C)=O)cc4)n3-c3ccccc3)c2c1

>  <Target Entity>
SNB-75 CNS

>  <growth>
81% (inactive)

$$$$
>  <Compound>
CCCCCCCSc1ncnc2[nH]ncc12

>  <Target Entity>
SNB-75 CNS

>  <growth>
59.3% (inactive)

$$$$
>  <Compound>
Cc1ccc(C(=O)Cc2ccccc2)c(O)c1

>  <Target Entity>
SNB-75 CNS

>  <growth>
97.8% (inactive)

$$$$
>  <Compound>
O=CN1N=C(c2ccc(Cl)cc2)CC1c1cccc(Nc2ccnc3cc(Cl)ccc23)c1 (stereo unspecified)

>  <Target Entity>
SNB-75 CNS

>  <growth>
1.24% (active)

$$$$
>  <Compound>
C=C1CCC2C3(C)COC(c4ccccc4)OC3CCC2(C)C1C/C=C1/C(=O)OCC1OC(C)=O (stereo unspecified)

>  <Target Entity>
SNB-75 CNS

>  <growth>
75.3% (inactive)

$$$$

INPUT: What measured growth goes with `COc1ccc(NC(=O)[C@@H]2C[C@H]2c2ccccc2)c(C(N)=O)c1` ?
OUTPUT: 96.2% (inactive)

INPUT: What measured growth goes with `C[C@]12CC[C@H](O)CC1=CC[C@@H]1[C@@H]2CC[C@]2(C)C(c3cccnc3)=CC[C@@H]12` ?
OUTPUT: 52.4% (inactive)

INPUT: What measured growth goes with `CCN(Cc1cccc(S(=O)(=O)[O-])c1)c1ccc(C(=C2C=CC(=[N+](CC)Cc3cccc(S(=O)(=O)O)c3)C=C2)c2ccccc2S(=O)(=O)O)cc1` ?
OUTPUT: 87.9% (inactive)

* * *

- System: SK-MEL-28 melanoma
- Assay Summary: NCI-60 one-dose screen, 48 h
- Setup Conditions: 10 µM unless noted
- Protocol: Growth inhibition of the SK-MEL-28 human tumor cell line is measured as a screen for anti-cancer activity. Cells are grown in 96 well plates and exposed to the test compound for 48 hours. Compounds are tested at a single concentration, which is 10^-5 M for most compounds. The reported endpoint is percent growth (GI% or GIPRCNT), where numbers from 0 - 100% represent growth inhibition, and numbers from -100% - 0 represent cell death. For example, a value of 40 represents 60% growth inhibition. […]
This is part of a sample that, as a whole, favours compounds with a hit. Of some 83,000 tested, about 20% had one in any assay. Activity calls are given as the source filed them. The calls were made as follows: active = growth percent below 10; inactive = the rest.
Just give me one of these, please: Y (active), N (inactive)

>  <Compound>
O=C1CSC(c2ccccc2Cl)N1c1nnc(Cn2nnc3ccccc32)o1 (stereo not drawn)

>  <Target Entity>
SK-MEL-28 melanoma

>  <Assigned Class>
N

$$$$
>  <Compound>
O=[N+]([O-])c1ccc(NS(=O)(=O)c2ccc(Cl)c(Cl)c2)cc1

>  <Target Entity>
SK-MEL-28 melanoma

>  <Assigned Class>
N

$$$$

INPUT: Tell me the recorded outcome of this test for Cc1cn(C(C=O)OC(C=O)CO)c(=O)[nH]c1=O (stereo not drawn) .
OUTPUT: N

INPUT: Tell me the recorded outcome of this test for `O=C(O)CNC(=O)C1(N2C(=O)c3ccccc3C2=O)CCCC1` .
OUTPUT: N

INPUT: Tell me the recorded outcome of this test for `Cc1ccc(-c2c3c(N)nc(-c4ccncc4)nc3nc3c2c(C)nn3-c2ccccc2)cc1` .
OUTPUT: N

INPUT: Tell me the recorded outcome of this test for `COc1ccc(CNC(=O)c2c(C)n([O-])c3cc(F)c(F)cc3[n+]2=O)cc1` .
OUTPUT: N

INPUT: Tell me the recorded outcome of this test for `CSc1nc(N)c2c(n1)N(C)C=NS2(=O)=O` .
OUTPUT: N

INPUT: Tell me the recorded outcome of this test for `O=C(CNC(=O)c1cccc2ccccc12)Nc1ccccc1Cc1ccccc1` .
OUTPUT: N

INPUT: Tell me the recorded outcome of this test for `COc1ccc2c(c1)CC/C(=C\c1ccc(OCC(=O)Nc3nc4ccccc4s3)cc1)C2=O` .
OUTPUT: N

INPUT: Tell me the recorded outcome of this test for `Cc1sc2nc(N3CCCCC3)[nH]c(=O)c2c1C` .
OUTPUT: N

INPUT: Tell me the recorded outcome of this test for `CN(C)CCCNc1nn2c(=O)c3ccccc3nc2c2ccccc12` .
OUTPUT: N

* * *

# growth values compiled below
- System: SF-268 CNS
- Assay Summary: NCI-60 one-dose screen, 48 h (100 = growth as untreated, 0 = no growth, -100 = all killed)
- Setup Conditions: 10 µM unless noted
About 83,000 compounds went through this panel and 20% of them were active in at least one assay; those are over-represented in the sample as a whole. Calls of active or inactive are those of the source. How the source made its calls: active means growth percent below 10; inactive means the rest.

# annotated cases, reported growth shown
>  <Compound>
O=C1NC(=O)/C(=C\c2ccco2)S1

>  <Target Entity>
SF-268 CNS

>  <Reading>
99.4% (inactive)

$$$$
>  <Compound>
COC(=O)[C@H](CCCCNC(=O)OCc1ccccc1)NC(=O)[C@@H](NC(=O)Nc1cc(C(F)(F)F)cc(C(F)(F)F)c1)C(C)C

>  <Target Entity>
SF-268 CNS

>  <Reading>
-85% [100 µM] (active)

$$$$

INPUT: What measured growth goes with `COP(=O)(OC)C(c1ccccc1)(c1ccccc1)c1ccccc1` ?
OUTPUT: 120% (inactive)

INPUT: What measured growth goes with `CC(=O)Nc1c(Cl)cc2c(c1Cl)Cc1ccccc1-2` ?
OUTPUT: 111% (inactive)

INPUT: What measured growth goes with `O=C1/C(=C/c2cccc(Cl)c2)CCc2ccccc21` ?
OUTPUT: 99.4% (inactive)

INPUT: What measured growth goes with CC1CN(/N=C/c2ccc([N+](=O)[O-])o2)C(=N)O1 (configuration not stated) ?
OUTPUT: 90.1% (inactive)

* * *

- Tested on: PC-3 prostate
- Assay Summary: NCI-60 one-dose screen, 48 h
- Setup Conditions: 10 µM unless noted
Compounds without any hit were thinned out: in the full panel of roughly 83,000, 20% have a hit. Activity calls are given as the source filed them. How the source made its calls: active means growth percent below 10; inactive means the rest.
Just give me one of these, please: active, inactive

Below are worked cases with known answers.
>  <Compound>
Cc1cc2c(cc1C)[n+](Cc1ccc3ccccc3n1)cn2Cc1ccc2ccccc2n1

>  <Target Entity>
PC-3 prostate

>  <Assigned Class>
active

$$$$
>  <Compound>
O=[N+]([O-])c1ccc(NS(=O)(=O)c2ccc(Cl)c(Cl)c2)cc1

>  <Target Entity>
PC-3 prostate

>  <Assigned Class>
inactive

$$$$
>  <Compound>
Nc1nc2c(c(=O)[nH]1)C1(C(=O)Nc3ccccc31)c1c(nc(N)[nH]c1=O)N2

>  <Target Entity>
PC-3 prostate

>  <Assigned Class>
inactive

$$$$
>  <Compound>
CCn1cnc(C[C@H](NC(=O)[C@H](CCCCNC(=O)Nc2cc(C(F)(F)F)cc(C(F)(F)F)c2)NC(=O)Nc2cc(C(F)(F)F)cc(C(F)(F)F)c2)C(=O)OC)c1

>  <Target Entity>
PC-3 prostate

>  <Assigned Class>
active

$$$$
>  <Compound>
O=C(c1ccc(Cl)cc1)c1ccc(Cl)cc1

>  <Target Entity>
PC-3 prostate

>  <Assigned Class>
inactive

$$$$

INPUT: Tell me the recorded outcome of this test for COc1cc(C2=NN(C=O)C(c3cccc(Nc4ccnc5cc(Cl)ccc45)c3)C2)cc(OC)c1OC (stereo not given) .
OUTPUT: inactive

INPUT: Tell me the recorded outcome of this test for COc1cc(C2CC(C3C(=O)N(C)C(=O)N(C)C3=O)=NN2C=O)cc(OC)c1OC (stereo not given) .
OUTPUT: inactive

These data points were gathered from PubChem BioAssay (NCI).
